biological target: human ABHD6 (Homo sapiens (Human), UniProt Q9BV23); experiment: Measurement of binding affinity for human ABHD6 (BRET, HEK293 cells expressing NanoLuc-human ABHD6 fusion protein); conditions: BRET competition with fluorescent probe molecule 100 nmol/L in HEK293 cells expressing NanoLuc-human ABHD6
Sequence (Q9BV23 whole entry, the tested form may be a part): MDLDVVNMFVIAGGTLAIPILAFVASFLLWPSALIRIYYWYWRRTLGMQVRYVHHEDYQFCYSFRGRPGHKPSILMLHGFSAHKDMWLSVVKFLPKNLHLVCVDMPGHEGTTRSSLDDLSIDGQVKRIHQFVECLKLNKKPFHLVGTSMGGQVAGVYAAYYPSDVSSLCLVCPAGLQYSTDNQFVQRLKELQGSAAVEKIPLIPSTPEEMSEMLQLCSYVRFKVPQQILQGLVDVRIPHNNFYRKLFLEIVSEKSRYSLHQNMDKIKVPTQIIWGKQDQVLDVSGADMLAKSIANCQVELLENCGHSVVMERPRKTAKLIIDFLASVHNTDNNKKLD
Quantity Name: pIC50
Interpret pIC50 as the negative base-10 log of the concentration measured in mol/L.

q: Provide the reported pIC50 (system: human ABHD6 (Homo sapiens (Human), UniProt Q9BV23)) for `O=C(c1cc2c(s1)CCOC2)N1C[C@@H]2CC[C@@H](Nc3ccc(Br)nn3)[C@@H]2C1`
a: 8.52

q: Consider the compound `Cc1ccc(C(=O)N2C[C@@H]3CC[C@@H](Nc4ccc(Br)nn4)[C@@H]3C2)s1` tested on human ABHD6 (Homo sapiens (Human), UniProt Q9BV23); state its pIC50.
a: 9.00

q: Look up and report measured pIC50 (human ABHD6 (Homo sapiens (Human), UniProt Q9BV23)) for the following compound: O=C(C1CC2CCC1CC2)N1C[C@@H]2CC[C@@H](Nc3ccc(Br)nn3)[C@@H]2C1 (some centres unmarked)
a: 7.80

New cases:
q: Recall the reported pIC50 of `O=C(c1cc2nn(C3CC3)cc2s1)N1C[C@@H]2CC[C@@H](Nc3ccc(Br)nn3)[C@@H]2C1` on human ABHD6 (Homo sapiens (Human), UniProt Q9BV23) and write it down.
a: 8.70

q: Provide pIC50, system human ABHD6 (Homo sapiens (Human), UniProt Q9BV23), entry `Cn1cc2sc(C(=O)N3C[C@@H]4CC[C@@H](Nc5ccc(Br)nn5)[C@@H]4C3)cc2n1`
a: 8.30

----------
target: recombinant human ABHD6 (33-337) (Homo sapiens (Human)); test: Evaluation of ABHD6 enzyme inhibitory activity (arachidonic acid production from 1-arachidonoyl glycerol, RapidFire-MS); conditions: inhibition of arachidonic acid production, 10 μmol/L 1-arachidonoyl glycerol, 1 hour, room temperature
Sequence (Q9BV23 33-337): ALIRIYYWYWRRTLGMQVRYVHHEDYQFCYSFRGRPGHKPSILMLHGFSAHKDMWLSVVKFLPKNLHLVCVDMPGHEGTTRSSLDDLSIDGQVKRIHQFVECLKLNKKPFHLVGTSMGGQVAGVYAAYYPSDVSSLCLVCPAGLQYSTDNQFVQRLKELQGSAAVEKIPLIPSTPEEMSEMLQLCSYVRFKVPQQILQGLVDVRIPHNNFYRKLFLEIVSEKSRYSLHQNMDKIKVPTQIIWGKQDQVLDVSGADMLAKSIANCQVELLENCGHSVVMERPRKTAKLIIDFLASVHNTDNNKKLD
Quantity Name: IC50 (nM)
Enter your answer as a number in nM; do not include the unit.

q: Fill in IC50 for `O=C(c1cc2c(s1)CCOC2)N1C[C@@H]2CC[C@@H](Nc3ccc(Cl)nn3)[C@]2(F)C1` tested with recombinant human ABHD6 (33-337) (Homo sapiens (Human)).
a: 1

---
q: Please look at `CN1C(=O)CCc2sc(C(=O)N3C[C@@H]4CC[C@@H](Nc5ccc(Br)nn5)[C@@H]4C3)cc21` and tell me its recorded IC50 on recombinant human ABHD6 (33-337) (Homo sapiens (Human)).
a: 5

q: Write IC50 of O=C(C1CC2CCC1CC2)N1C[C@@H]2CC[C@@H](Nc3ccc(Br)nn3)[C@@H]2C1 (stereo partly drawn) ; system used: recombinant human ABHD6 (33-337) (Homo sapiens (Human))
a: 2

q: Look up and report measured IC50 (recombinant human ABHD6 (33-337) (Homo sapiens (Human))) for the following molecule: Cc1ccc(C(=O)N2C[C@@H]3CC[C@@H](Nc4nnc(Cl)cc4C#N)[C@@H]3C2)s1 (relative stereo)
a: 2

q: Answer with IC50 of `O=C(c1cc2c(s1)CCOC2)N1C[C@@H]2CC[C@@H](Nc3ccc(Cl)nn3)[C@@H]2C1` measured for recombinant human ABHD6 (33-337) (Homo sapiens (Human)).
a: 1

----------
Known pIC50 of a selection of molecules
biological target: human ABHD6 (Homo sapiens (Human), UniProt Q9BV23); assay: Measurement of binding affinity for human ABHD6 (BRET, HEK293 cells expressing NanoLuc-human ABHD6 fusion protein); conditions: BRET competition with fluorescent probe molecule 100 nmol/L in HEK293 cells expressing NanoLuc-human ABHD6
Bear in mind: pIC50 is minus log10 of a mol/L concentration; give just that figure.

Past entries and their recorded results:
q: Give a short answer stating reported pIC50 for Cc1ccc(C(=O)N2C[C@@H]3CC[C@@H](Nc4ccc(Cl)nn4)[C@@H]3C2)s1 [Example 1-2] .
a: 8.30

q: Return pIC50 for the following molecule: O=C(c1cc2c(s1)CCOC2)N1C[C@@H]2CC[C@@H](Nc3ccc(Cl)nn3)[C@]2(F)C1 [Example 12]
a: 9.00

q: Write down pIC50 measured for item O=C(c1ccc(C(F)F)s1)N1C[C@@H]2CC[C@@H](Nc3ccc(Cl)nn3)[C@@H]2C1 [Example 1]
a: 7.96

Query molecule follows.
q: Please give the documented pIC50 of Cc1ccc(C(=O)N2C[C@@H]3CC[C@@H](Nc4nnc(Cl)cc4C#N)[C@@H]3C2)s1 (relative stereo) [Example 9]
a: 8.10

----------
molecular target: human ABHD6 (Homo sapiens (Human), UniProt Q9BV23); assay: Measurement of binding affinity for human ABHD6 (BRET, HEK293 cells expressing NanoLuc-human ABHD6 fusion protein); settings: BRET competition with fluorescent probe molecule 100 nmol/L in HEK293 cells expressing NanoLuc-human ABHD6
Quantity Name: IC50 (nM)
Reply numerically in nM, unit not repeated.

Known IC50 results, listed for orientation:
q: Supply IC50 value. Item: `O=C(c1cc2c(s1)CCOC2)N1C[C@H]2[C@H](Nc3ccc(Br)nn3)CC(F)(F)[C@H]2C1`
a: 4

q: Could you please provide reported IC50 for `Cc1ccc(C(=O)N2C[C@@H]3CC[C@@H](Nc4ccc(I)nn4)[C@@H]3C2)s1` ? Thanks!
a: 3

q: Consider the molecule `Cc1ccc(C(=O)N2C[C@@H]3CC[C@@H](Nc4ccc(Br)nn4)[C@]3(F)C2)s1` . State its measured IC50.
a: 2

New cases:
q: Give IC50 for the following molecule: `O=C(c1cc2c(s1)CCOC2)N1C[C@@H]2CC[C@@H](Nc3ccc(Cl)nn3)[C@@H]2C1`
a: 2

q: Output measured IC50 for this item: Cc1ccc(C(=O)N2C[C@@H]3CC[C@@H](n4ccc5cc(Cl)nnc54)[C@@H]3C2)s1 (racemic)
a: 5

q: Query IC50 for `O=C(c1cc2nn3c(c2s1)CCC3)N1C[C@@H]2CC[C@@H](Nc3ccc(Br)nn3)[C@@H]2C1`
a: 6

q: Tell me measured IC50 for `CN1C(=O)CCc2sc(C(=O)N3C[C@@H]4CC[C@@H](Nc5ccc(Br)nn5)[C@@H]4C3)cc21` please.
a: 62

----------
Each entry below lists one item and its recorded IC50 value.
target: human ABHD6 (Homo sapiens (Human), UniProt Q9BV23); assay: Measurement of binding affinity for human ABHD6 (BRET, HEK293 cells expressing NanoLuc-human ABHD6 fusion protein); settings: BRET competition with fluorescent probe molecule 100 nmol/L in HEK293 cells expressing NanoLuc-human ABHD6
Just the number in nM, nothing appended.

Take a look at these entries with their results.
q: Write down the reported IC50 (system: human ABHD6 (Homo sapiens (Human), UniProt Q9BV23)) of O=C(c1cc2c(s1)CCOC2)N1C[C@@H]2CC3(CC3)[C@@H](Nc3ccc(Br)nn3)[C@@H]2C1 [Example 15]
a: 1

q: Provide the reported IC50 (system: human ABHD6 (Homo sapiens (Human), UniProt Q9BV23)) for Cc1ccc(C(=O)N2C[C@@H]3CC[C@@H](N(Cc4ccccc4)c4ccc(Br)nn4)[C@@H]3C2)s1 [Example 6-2]
a: 1

---
q: Write IC50 of CN(C)c1ncc(C(=O)N2C[C@@H]3CC[C@@H](Nc4ccc(Br)nn4)[C@@H]3C2)s1 [Example 2-6] ; system used: human ABHD6 (Homo sapiens (Human), UniProt Q9BV23)
a: 25
